assay: Viscosity measured using a Brookfield cone/plate viscometer; format: physicochemical
measurement.kind: Viscosity (centipoise)

# example entries with known answers
{"compound": "Cc1ccc(C(=O)OCCCc2ccccc2)cc1 [A3]", "Viscosity / centipoise": 22}
{"compound": "CCCCOC(=O)c1ccccc1C(=O)OCCCC [B1, dibutyl phthalate]", "Viscosity / centipoise": 17}
{"compound": "O=C(OCCc1ccccc1)c1ccccc1 [B4]", "Viscosity / centipoise": 14}
{"compound": "O=C(OCCCc1ccccc1)c1ccccc1 [A1]", "Viscosity / centipoise": 15}

a: CC(C)(COC(=O)c1ccccc1)Cc1ccccc1 [A2]
b: CCCCC(CC)COC(=O)C1CCCCC1 (stereo not shown) [B3]
Of a versus b , which is the one with smaller reported Viscosity? Give the chosen item's label as your response.
b

====

test: Water solubility from light scattering at 500 nm of dispersions of the high-boiling solvent in water; assay type: physicochemical
measurement.kind: solubility (µg/mL)

A selection of reference data follows.
{"molecule": "Cc1ccc(C(=O)OCCCc2ccccc2)cc1", "solubility, µg/mL": 3.5}
{"molecule": "O=C(OCCc1ccccc1)c1ccccc1", "solubility, µg/mL": 10}
{"molecule": "CCCCOC(=O)c1ccccc1C(=O)OCCCC [B1, dibutyl phthalate]", "solubility, µg/mL": 9.4}

1: CCCCOC(=O)CCCCCCCCC(=O)OCCCC
2: O=C(OCCCc1ccccc1)c1ccccc1
I need your help: which of the pair 1 , 2 has higher solubility? Pick one and reply with its label.
2
(2: 5.5 µg/mL, 1: 0.8 µg/mL)

====

assay: Visible absorption maximum (Lambda max) of Dye C1 in the solvent, measure of solvent polarity/polarizability; assay type: physicochemical; details: Dye C1 in the high-boiling solvent; Perkin Elmer Lambda 2S spectrophotometer
measurement.kind: Lambda max of Dye C1 (nm)

{"compound": "CCCCOC(=O)CCCCCCCCC(=O)OCCCC", "meas.value": 658}
{"compound": "O=C(OCCc1ccccc1)c1ccccc1", "meas.value": 674}
{"compound": "CCCCC(CC)COC(=O)C1CCCCC1 (stereo not shown)", "meas.value": 661}
{"compound": "CC(C)(COC(=O)c1ccccc1)Cc1ccccc1", "meas.value": 668}
{"compound": "CCCCOC(=O)c1ccccc1C(=O)OCCCC [B1, dibutyl phthalate]", "meas.value": 674}
{"compound": "O=C(OCCCc1ccccc1)c1ccccc1", "meas.value": 673}
{"compound": "Cc1ccc(C(=O)OCCCc2ccccc2)cc1", "meas.value": 670}
